Assignment: determine reported GTPγS - hmGluR2 anGT Emax for the given compounds.
Target System: human mGlu2 receptor (Homo sapiens)
Sequence (Q14416 19-872): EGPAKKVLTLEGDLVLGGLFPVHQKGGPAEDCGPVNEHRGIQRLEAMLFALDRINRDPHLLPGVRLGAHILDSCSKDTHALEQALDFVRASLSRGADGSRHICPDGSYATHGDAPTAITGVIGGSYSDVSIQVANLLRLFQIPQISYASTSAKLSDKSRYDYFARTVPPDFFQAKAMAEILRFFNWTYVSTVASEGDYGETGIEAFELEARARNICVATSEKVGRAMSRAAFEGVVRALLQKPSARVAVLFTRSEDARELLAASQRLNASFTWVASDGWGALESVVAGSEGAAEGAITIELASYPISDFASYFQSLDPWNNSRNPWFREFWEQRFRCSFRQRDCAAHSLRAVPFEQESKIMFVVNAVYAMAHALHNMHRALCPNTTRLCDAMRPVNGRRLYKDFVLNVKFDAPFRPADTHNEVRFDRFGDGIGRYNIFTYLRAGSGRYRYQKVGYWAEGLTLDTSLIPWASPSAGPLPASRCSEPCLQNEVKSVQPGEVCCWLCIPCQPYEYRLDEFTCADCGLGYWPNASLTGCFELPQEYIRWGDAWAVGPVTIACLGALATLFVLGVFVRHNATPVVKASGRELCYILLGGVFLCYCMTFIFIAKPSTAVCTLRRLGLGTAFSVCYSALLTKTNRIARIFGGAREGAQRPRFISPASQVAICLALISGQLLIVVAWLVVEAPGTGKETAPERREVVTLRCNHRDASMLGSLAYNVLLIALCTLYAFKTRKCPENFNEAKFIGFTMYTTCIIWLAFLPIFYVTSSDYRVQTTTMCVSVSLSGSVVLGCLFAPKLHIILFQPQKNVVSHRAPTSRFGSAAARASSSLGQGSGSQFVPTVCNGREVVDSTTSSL
Procedure Summary: [35S]GTPγS binding assay, mGluR2 negative allosteric modulation (membranes from CHO cells transfected with human mGlu2 receptor, glutamate ~EC80 60 μM);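 note: membranes preincubated 30 min at 30 °C with compound plus glutamate, then [35S]GTPγS (0.1 nM) incorporation measured over another 30 min at 30 °C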
Particulars: relative maximal effect: maximal % inhibition relative to the control glutamate response
One number for each entry, in %.

[
  {
    "Compound": "COc1cncc(NC(=O)c2cnn3c2C(=O)N(c2ccc(Cl)c(Cl)c2)C[C@@H]3C)c1 [compound 29]",
    "Target System": "human mGlu2 receptor (Homo sapiens)",
    "Units": "%",
    "GTPγS - hmGluR2 anGT Emax": 107
  },
  {
    "Compound": "C[C@H]1CN(c2ccc(C(F)(F)F)cc2)C(=O)c2c(C(=O)Nc3cncc(F)c3)cnn21 [13a]",
    "Target System": "human mGlu2 receptor (Homo sapiens)",
    "Units": "%",
    "GTPγS - hmGluR2 anGT Emax": 106
  }
]

Hey, quick one: what's GTPγS - hmGluR2 anGT Emax for each of these?
1. COCC1CN(c2ccc(C(F)(F)F)cc2)C(=O)c2c(C(=O)Nc3cccnc3)cnn21 (racemic) [compound 165]
2. COCC1CN(c2ccc(C(F)(F)F)cc2)C(=O)c2c(C(=O)Nc3cnccn3)cnn21 (single isomer, unassigned) [compound 155]
3. COCC1CN(c2ccc(C(F)(F)F)cc2)C(=O)c2c(C(=O)Nc3cccnc3)cnn21 (single isomer, unassigned) [compound 159]

[106, 106, 108]
